The reader will find reported IC50 at 72 h values listed item by item below.
# assay remarks: Cytotoxicity against human L02 cells assessed as inhibition of cell growth incubated for 72 hrs by CCK-8 assay
# Assay type: toxicity, cell-based
State just the number; it will be interpreted in nM.

Recorded IC50 at 72 h, per entry:
CC(C)S(=O)(=O)c1ccccc1Nc1nc(Nc2ccc(NC(=O)CN3CCC(C(=O)NCCCCCC(=O)NO)CC3)cc2)ncc1Cl | 5050
CC(C)S(=O)(=O)c1ccccc1Nc1nc(Nc2ccc(OCC(=O)N3CCOCC3)cc2)ncc1Cl | 368
CC(C)S(=O)(=O)c1ccccc1Nc1nc(Nc2ccc(CN3CCC(C(=O)O)CC3)cc2)ncc1Cl | 1270

# ---- query compound ----
INPUT: Look up IC50 at 72 h of "CC(C)S(=O)(=O)c1ccccc1Nc1nc(Nc2ccc(CN3CCSCC3)cc2)ncc1Cl" and report it.
OUTPUT: 1140
